target: pooled human IgG (human IgG1,2,3 and 4)
Readout Type: Enzyme Activity Endpoint Assay (purified): Fc (ng/µL)

- Protein: "PRT-325 (protein) MTITSVWTKGVTPPTPEDFRENNEDVLHAPYVANQGWYDITKTFDGKDNLLCGAATAGNMLHWWFDQNKEEIERYLKKHPEKQKIIFGNQELFDVKAAIDTKDSQTNSKLFDYFRDKAFPNLSARQLGVMPDLVLDMFINGYYLNLGKTQSTDVNRPYQDKDKRGGIFDAVFTRGDQTTLLTARHDLKNKGLNEISDLIKQELTEGKALALSHTYANVRINHVINLWGADFDAEGELIAIYVTDSDANPSIGMKKYFVGRNANGKVAISAKKIEGDNIGAQVLGLFTLSTGQDIWQKLS"
  Unit Text: "ng/µL"
  Number: 466
- Protein: "PRT-362 (protein) MSQTEDSESLQRLRDIEDFQAEKKKQNVVYTKWLDGVDVKDHDFRKIVDGNSAYYATPLLNGRGFYDINKDFNRDSDKCAAAVAANMFHYWLDRNRDNVDRFLRQNPEKHGIIELPDGQLKLSDFLNTYESDDGYRDKSKLFDFISENFNGPVWTDKLLDNYINGYAYNSKYGRTIEDPTKNTSKINFFKEVFNEKILTNNHSIRNQNEFSVLLIEALYTGKAIGLSYGPAGLRHGLGHIISVWGADLDADGNVVAIYVTDSDDKKLTIGDERVGLKRYKISTDDEGRLRLTAYEETHNTGGQIRGLWTLDTGKQAWADYFDKTEQTGTDQAEQ"
  Unit Text: "ng/µL"
  Number: 225
- Protein: "PRT-470 (protein) MVTSVWTKGVTPPTDFIYGEDVLHAPYKAGQGWYDITKTFNGKDDLLCGAATAGNMLHWWFDQNKEQIENYLKKHPEKQKINFNGEQMFDVKEAIDTKDSQLDSKLFEYFKEKAFPYLSTKHLGVFPDHVIDMFINGYRLSLTNHGPTPVKRGSKDPRGGIFDAVFTRGDQSKLLTNRHDFKEKTLKEISDLIKQELTEGKALGISHTYANVRINHVINLWGADFDAEGNLEAIYVTDSDSNASIGMKKYFVGVNSNGKVAISAKEIEEDNIGAQVLGLFTLSTGQDIWNQTNLEHHHHHH"
  Unit Text: "ng/µL"
  Number: 363
- Protein: "PRT-320 (protein) MTITSVWTKGVTPPTPEDFRENNEDVLHAPYVANQGWYDITKTFDGKDNLLCGAATAGNMLHWWFDQNKEEIERYLKKHPEKQKIIFGNQELFDVKAAIDTKDSQTNSKLFDYFRDKAFPNLSARQLGVMPDLVLDMFINGYYLNLGKTQSTDVNRPYQDKDKRGGIFDAVFTRGDQTTLLTARHDLKNKGLNEISDLIKQELTEGKALALSHTYANVRINHVINLWGADFDAEGNLIAIYVTDSDANASIGMKKYFVGRNANGKVAISAKKIEGDNIGAQVLGLFTLSTGQDQWQKLS"
  Unit Text: "ng/µL"
  Number: 339
- Protein: "PRT-342 (protein) MTITSVWTKGVTPPTPEDFRENNEDVLHAPYLANQGWYDITKAFDGKDNLLCGAATAGNMLHWWFDQNKEEIERYLKKHPEKQKIIFGNQELFDVKAAIDTKDSQTNSKLFNYFRDKAFPNLSARQLGVMPDLVLDMFINGYYLNLGKTQSTDVNRPYQDKDKRGGIFDAVFTRGDQTTLLTARHDLKNKGLNEISDLIKQELTEGKALALSHTYANVSINHVINLWGADFDAEGNLEAIYVTDSDANPSIGMKKYFVGRNAHGKVAISAKKIEGDNIGAQVLGLFTLSTGQDIWQKLS"
  Unit Text: "ng/µL"
  Number: 209
- Protein: "PRT-369 (protein) MSQTEDSESLQRLRDIEDFQAEKKDQNVVYTKWLDGVDVKDHDFRKIVDGNIAYYATPLLNGRGLYDINKDFNRDNDKCAAAVAANMFHYWLDRNRDNVDRFLRQNPEKHGIIELPDGQLKLSDFLNTYESDDGYRDKSKLFDFISENFNGPVWTDKLLDNYINGYAYNYKYGRTIEDSTKNTSKINFFKEVFNEKILTNNHSIRNQNELSVLLSEALYTGKAIGLSYGPAGLRHSLGHIISVWGADLDADGNVVAIYVTDSDDKKLTIGDERVGLKRYKISTDDEGRLRLTAYEETHNTGGQVRGLWTLDTGKQAWADYFDKTEQTGTDQAEQ"
  Unit Text: "ng/µL"
  Number: 284
- Protein: "PRT-294 (protein) MVTSVWTKGVTPPADFTQGEDVFHAPYDANQGWYDITKTFNGKDDLLCGAATAGNMLHWWFDQNKEYIEAYLKKHPEKQKIMFGDQELLDVRKAINTKGSQKNSELFNYFRDKAFPNLSARRLGVMPDLVLDMFINGYYLNVTKTQTTDVNRTYQEKDKRGGIFDAVFTRGDQSKLLTSRHDFKEKGLKEISDLIKQELTEGKALGLSHTYANVRISHVINLWGADFDSDGNLKAIYVTDSDSNASIGMKKYGVGVNSAGKVAISAKEIKEDNIGAQVLGLFTLSTGQDIWNQTN"
  Unit Text: "ng/µL"
  Number: 456
- Protein: "PRT-337 (protein) MTITSVWTKGVTPPTPEDFRKNNEDVLHAPYLANQGWYDITKAFDGKDNLLCGAATAGNMLHWWFDQNKEEIERYLKKHPEKQKIIFNNQELFDVKAAIDTKDSQTNSKLFNYFRDKAFPNLSARQLGVMPDLVLDMFINGYYLNLGKTQSTDVNRPYQDKDKRGGIFDAVFTRGDQTTLLTARHDLKNKGLNEISDLIKQELTEGKALALSHTYANVSINHVINLWGADFDAEGNLEAIYVTDSDANASIGMKKYFVGRNAHGKVAISAKKIEGDNIGAQVLGLFTLSTGQDIWQKLS"
  Unit Text: "ng/µL"
  Number: 74
